The values you see were collected from patent US9890185B2.

Tested on: PBMCs
Assay: IL-2 release in CD3/CD28 stimulated PBMC cells (assay c)
Format: cell-based
Conditions: Homo sapiens, read-out: IC50 Values for Inhibition of Cytokine Release, PBMCs IL-2
Parameter IC50: see the listing below.
Number in nM, nothing else.

| COMPOUND | ENDPOINT | TEST RESULT |
| --- | --- | --- |
| COc1cc(Nc2cc(Oc3ccc(NC(=O)Nc4cc(C(C)(C)C)cc(CC(N)=O)c4OC)c4ccccc34)ccn2)ccc1C(=O)NCC(CO)(CO)CO [Example 73] | IC50 | 60.1 |
| COCCOCCOCCNC(=O)c1cc(Nc2cc(Oc3ccc(NC(=O)Nc4cc(C(C)(C)C)cc(CNC(C)=O)c4OC)c4ccccc34)ccn2)cc(OC)c1 [38(y)] | IC50 | 28.3 |

Now for a further compound.
*Q* Return the recorded IC50 value; entry: COc1cc(Nc2cc(Oc3ccc(NC(=O)Nc4cc(C(C)(C)C)cc(P(C)(C)=O)c4OC)c4ccccc34)ccn2)cc(C(N)=O)c1 [Example 37]
*A* 48

* * *

Listing of recorded IC50 by entry.
Test system: PBMCs
Assay: LPS-induced IL-8 release in PBMC cells (assay b)
Type: cell-based, human
Conditions: Homo sapiens, PBMC; LPS-stimulated PBMCs; read-out: IC50 Values for Inhibition of Cytokine Release, PBMCs IL-8
State the answer as a number, implicitly in nM.

Field: example entries. Status: answers known.
| MOLECULE | UNIT DESCRIPTOR | TEST RESULT |
| --- | --- | --- |
| COc1c(CC(N)=O)cc(C(C)(C)C)cc1NC(=O)Nc1ccc(Oc2ccnc(Nc3cc(C#N)cc(OCCN4CCOCC4)c3)c2)c2ccccc12 | nM | 0.8 |
| COCCOCCOCCOc1cc(Nc2cc(Oc3ccc(NC(=O)Nc4cc(C(C)(C)C)cc(P(C)(C)=O)c4)c4ccccc34)ccn2)cc(OC)c1 | nM | 2 |
| COc1cc(Nc2cc(Oc3ccc(NC(=O)Nc4cc(C(C)(C)C)cc(P(C)(C)=O)c4OC)c4ccccc34)ccn2)cc(OC)c1 | nM | 1 |
| COCCOCCOCCOc1cc(Nc2cc(Oc3ccc(NC(=O)Nc4cc(C(C)(C)C)cc(P(C)(C)=O)c4OC)c4ccccc34)ccn2)cc(OC)c1 | nM | 1 |

*Q* State IC50 (PBMCs) of COc1cc(Nc2cc(Oc3ccc(NC(=O)Nc4cc(C(C)(C)C)cc(CNC(C)=O)c4OC)c4ccccc34)ccn2)cc(C(=O)NCCN2CC[S+]([O-])CC2)c1 .
*A* 3.4

*Q* Answer with IC50 of COc1cc(Nc2cc(Oc3ccc(NC(=O)Nc4cc(C(C)(C)C)cc(S(C)(=O)=O)c4OC)c4ccccc34)ccn2)ccc1C(=O)NCCN1CCOCC1 measured for PBMCs.
*A* 4.5

*Q* Report IC50 under test system PBMCs for COc1cc(Nc2cc(Oc3ccc(NC(=O)Nc4cc(C(C)(C)C)cc(OC(CO)CO)c4OC)c4ccccc34)ccn2)cc(C(N)=O)c1 .
*A* 2.2

*Q* Look up and report IC50, with PBMCs as system, for COc1c(CS(C)(=O)=O)cc(C(C)(C)C)cc1NC(=O)Nc1ccc(Oc2ccnc(Nc3ccccc3)n2)c2ccccc12
*A* 13.5

*Q* Report IC50 from PBMCs testing of COCCOCCOCCOc1cc(Nc2nccc(Oc3ccc(NC(=O)Nc4cc(C(C)(C)C)cc(C(=O)NCCN5CCOCC5)c4OC)c4ccccc34)n2)cc(OC)c1
*A* 1.3

* * *

Tested on: PBMCs
Assay: LPS-induced IL-8 release in PBMC cells (assay b)
Type: cell-based, human
Details: Homo sapiens, PBMC; LPS-stimulated PBMCs; read-out: IC50 Values for Inhibition of Cytokine Release, PBMCs IL-8
Items are presented alongside their recorded pIC50.
Note on pIC50: it is the negative log10 of concentration, concentration in mol/L.

Study these solved cases before continuing.
| COMPOUND | pIC50 |
| --- | --- |
| COc1cc(CO)cc(Nc2cc(Oc3ccc(NC(=O)Nc4cc(C(C)(C)C)cc(P(C)(C)=O)c4OC)c4ccccc34)ccn2)c1 | 8.77 |
| COCCOCCOCCNC(=O)c1cc(Nc2cc(Oc3ccc(NC(=O)Nc4cc(C(C)(C)C)cc(CC(N)=O)c4OC)c4ccccc34)ccn2)cc(OC)c1 | 8.96 |
| COc1cc(Nc2cc(Oc3ccc(NC(=O)Nc4cc(C(C)(C)C)cc(P(C)(C)=O)c4OC)c4ccccc34)ccn2)cc(C(N)=O)c1 | 8.77 |
| COc1cc(Nc2cc(Oc3ccc(NC(=O)Nc4cc(C(C)(C)C)cc(CC(N)=O)c4OC)c4ccccc34)ccn2)cc(S(=O)(=O)C2CC2)c1 | 8.66 |

*Q* Return reported pIC50. Input compound: COc1cc(Nc2cc(Oc3ccc(NC(=O)Nc4cc(C(C)(C)C)cc([S+](C)[O-])c4OC)c4ccccc34)ccn2)cc(C(=O)NCCN2CCN(C)CC2)c1 (stereo not drawn)
*A* 8.74

*Q* Output pIC50 of COc1cc(Nc2cc(Oc3ccc(NC(=O)Nc4cc(C(C)(C)C)cc(S(C)(=O)=O)c4OC)c4ccccc34)ccn2)cc(C(=O)NCCN2CCOCC2)c1
*A* 8.82

* * *

Molecular target: GSK 3α (Homo sapiens (Human), UniProt P49840)
Sequence (P49840 whole entry): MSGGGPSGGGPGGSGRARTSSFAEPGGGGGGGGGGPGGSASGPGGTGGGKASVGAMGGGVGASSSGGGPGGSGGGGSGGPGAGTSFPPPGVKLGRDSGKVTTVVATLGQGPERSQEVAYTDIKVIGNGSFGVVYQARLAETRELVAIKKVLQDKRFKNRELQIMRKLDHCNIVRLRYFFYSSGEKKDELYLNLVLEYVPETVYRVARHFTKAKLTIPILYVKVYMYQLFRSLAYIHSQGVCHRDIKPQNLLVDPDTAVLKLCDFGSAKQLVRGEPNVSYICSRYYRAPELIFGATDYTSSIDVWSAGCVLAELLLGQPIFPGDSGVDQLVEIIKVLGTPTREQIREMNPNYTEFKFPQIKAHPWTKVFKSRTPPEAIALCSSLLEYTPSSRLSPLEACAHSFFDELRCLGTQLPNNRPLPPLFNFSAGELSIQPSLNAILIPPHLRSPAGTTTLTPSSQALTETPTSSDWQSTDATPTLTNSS
Readings of pIC50 for the listed compounds
Answer as the number alone; pIC50 is minus log10 of concentration in mol/L.

| SMILES TEXT | TEST RESULT |
| --- | --- |
| COc1cc(Nc2cc(Oc3ccc(NC(=O)Nc4cc(C(C)(C)C)cc(CC(N)=O)c4OC)c4ccccc34)ccn2)cc(S(N)(=O)=O)c1 | 6.05 |

*Q* Return pIC50 for the following compound: COc1c(NC(=O)Nc2ccc(Oc3ccnc(NCCN4CCOCC4)n3)c3ccccc23)cc(C(C)(C)C)cc1P(C)(C)=O
*A* 6.47

*Q* Input COc1cccc(Nc2nccc(Oc3ccc(NC(=O)Nc4cc(C(C)(C)C)cc(P(C)(C)=O)c4OC)c4ccccc34)n2)c1 , output reported pIC50.
*A* 6.12

* * *

Molecular target: UniProt Q15759
Sequence (Q15759 whole entry): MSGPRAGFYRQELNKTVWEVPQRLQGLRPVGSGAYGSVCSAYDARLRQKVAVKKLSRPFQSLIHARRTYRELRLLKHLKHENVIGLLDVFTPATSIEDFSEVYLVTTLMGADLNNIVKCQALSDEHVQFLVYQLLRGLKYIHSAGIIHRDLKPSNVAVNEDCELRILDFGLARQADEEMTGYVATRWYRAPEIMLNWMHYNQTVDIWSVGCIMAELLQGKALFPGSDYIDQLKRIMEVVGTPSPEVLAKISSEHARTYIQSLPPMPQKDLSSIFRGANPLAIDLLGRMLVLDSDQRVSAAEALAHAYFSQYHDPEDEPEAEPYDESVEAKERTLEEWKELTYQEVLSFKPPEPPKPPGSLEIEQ
ENDPOINT: Kd (nM)
Entry rule: numbers only, all in nM.

*Q* // output Kd; input COCCOCCOCCOc1cc(Nc2cc(Oc3ccc(NC(=O)Nc4cc(C(C)(C)C)cc(S(C)(=O)=O)c4OC)c4ccccc34)ccn2)cc(OC)c1 ; system UniProt Q15759
*A* 340

* * *

Test system: d-U937 cells
Assay: Accumulation of β catenin in d-U937 cells (assay m)
Assay type: cell-based, human
Details: test compound 1 μg/mL; percentage relative to Reference Compound at 1 μg/mL
# % β-catenin induction per entry
Write the answer as a number in %, unit excluded.

Worked cases, answers included:
| COMPOUND | UNIT DESCRIPTOR | % β-catenin induction |
| --- | --- | --- |
| COc1c(NC(=O)Nc2ccc(Oc3ccnc(Nc4cccnc4)c3)c3ccccc23)cc(C(C)(C)C)cc1P(C)(C)=O [15(ad)] | % | 12.0 |
| COc1c(NC(=O)Nc2ccc(Oc3ccnc(Nc4ccccc4)c3)c3ccccc23)cc(C(C)(C)C)cc1[S+](C)[O-] (racemic) [Example 12] | % | −0.5 |
| COc1c(NC(=O)Nc2ccc(Oc3ccnc(Nc4cc(C)cc(C)c4)c3)c3ccccc23)cc(C(C)(C)C)cc1P(C)(C)=O [Example 28] | % | 3.0 |
| COc1cc(CO)cc(Nc2cc(Oc3ccc(NC(=O)Nc4cc(C(C)(C)C)cc(P(C)(C)=O)c4OC)c4ccccc34)ccn2)c1 [38(c)] | % | 3.5 |
| COCCOCCOCCOc1cc(Nc2cc(Oc3ccc(NC(=O)Nc4cc(C(C)(C)C)cc(CS(C)(=O)=O)c4OC)c4ccccc34)ccn2)cc(OC)c1 [15(a)] | % | −4.0 |

Query compound follows.
*Q* Quote % β-catenin induction with test system d-U937 cells for COc1cccc(Nc2nccc(Oc3ccc(NC(=O)Nc4cc(C(C)(C)C)cc(P(C)(C)=O)c4OC)c4ccccc34)n2)c1 [15(g)]
*A* 15.0

* * *

System: d-U937 cells
Experiment: Accumulation of β catenin in d-U937 cells (assay m)
Format: cell-based, human
Conditions: test compound 10 μg/mL; percentage relative to Reference Compound at 1 μg/mL
Cut-off 30% on % β-catenin induction: below means Yes, at or above means No.

Worked examples, 3 compounds total:
| COMPOUND | TEST TARGET | CLASS ASSIGNMENT |
| --- | --- | --- |
| COc1cc(F)cc(Nc2cc(Oc3ccc(NC(=O)Nc4cc(C(C)(C)C)cc(P(C)(C)=O)c4OC)c4ccccc34)ccn2)c1 [15(an)] | d-U937 cells | Yes |
| COc1c(CC(N)=O)cc(C(C)(C)C)cc1NC(=O)Nc1ccc(Oc2ccnc(Nc3ccn(C)n3)c2)c2ccccc12 [38(o)] | d-U937 cells | No |
| COc1c(NC(=O)Nc2ccc(Oc3ccnc(Nc4cccnc4)c3)c3ccccc23)cc(C(C)(C)C)cc1P(C)(C)=O [15(ad)] | d-U937 cells | No |

*Q* I'd appreciate it if you could check whether COCCOCCOCCOc1cc(Nc2cc(Oc3ccc(NC(=O)Nc4cc(C(C)(C)C)cc(CP(C)(C)=O)c4OC)c4ccccc34)ccn2)cc(OC)c1 [Example 29] has % β-catenin induction smaller than 30%.
*A* No

*Q* I wonder whether COc1c(NC(=O)Nc2ccc(Oc3ccnc(Nc4ccccc4)c3)c3ccccc23)cc(C(C)(C)C)cc1OCP(C)(C)=O [15(e)] has % β-catenin induction below 30%. Can you tell?
*A* No

*Q* Please state whether % β-catenin induction is below 30% for COc1c(NC(=O)Nc2ccc(Oc3ccnc(NCc4ccccn4)c3)c3ccccc23)cc(C(C)(C)C)cc1[S+](C)[O-] (stereo not shown) [Example 42]
*A* Yes

*Q* Record COCCOCCOCCOc1cc(Nc2cc(Oc3ccc(NC(=O)Nc4cc(C(C)(C)C)cc(S(C)(=O)=O)c4OC)c4ccccc34)ccn2)cc(OC)c1 [Example 9] : is its % β-catenin induction strictly below 30%?
*A* Yes

*Q* Quick check: does COc1cc(Nc2nccc(Oc3ccc(NC(=O)Nc4cc(C(C)(C)C)cc(OCP(C)(C)=O)c4OC)c4ccccc34)n2)cc(OC)c1 [Example 20] have % β-catenin induction under 30%?
*A* Yes
